Target: Myc proto-oncogene protein (Homo sapiens) (UniProt P01106)
Sequence (P01106 whole entry, looked up): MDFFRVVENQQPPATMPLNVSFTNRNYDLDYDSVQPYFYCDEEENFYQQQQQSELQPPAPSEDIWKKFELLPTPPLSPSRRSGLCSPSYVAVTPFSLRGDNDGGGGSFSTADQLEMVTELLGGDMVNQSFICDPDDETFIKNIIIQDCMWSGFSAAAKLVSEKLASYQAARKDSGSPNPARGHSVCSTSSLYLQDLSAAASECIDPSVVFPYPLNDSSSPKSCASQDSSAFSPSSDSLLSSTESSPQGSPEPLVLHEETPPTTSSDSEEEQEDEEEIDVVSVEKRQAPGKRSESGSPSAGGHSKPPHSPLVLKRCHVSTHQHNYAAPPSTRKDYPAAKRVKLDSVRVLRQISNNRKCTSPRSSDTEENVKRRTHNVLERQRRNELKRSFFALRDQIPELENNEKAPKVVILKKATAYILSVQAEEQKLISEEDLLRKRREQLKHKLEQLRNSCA
Assay: ATG_Myc_CIS: Attagene CIS-FACTORIAL HepG2 Assay for human Myelocytomatosis (Myc) Proto-Oncogene Transcription Factor (AID 2282990)
Conditions: HepG2, Attagene cis-reporter transcription factor activity; actives raise or lower the signal
The source made the active and inactive calls. Rule for the calls: active = hit-call score of the fitted dose curve at least 0.9, where 1 is the maximum; inactive = score below 0.9.
Field 'call' accepts 1.0 = active, 0.0 = inactive

Asked: Check the results log: what was the call for c1cc[c]([Hg][c]2ccccc2)cc1 ?
Given back: 0.0

Asked: Check the results log: what was the call for CCC[CH2][Sn]([Cl])([Cl])[Cl] ?
Given back: 0.0

Asked: Check the results log: what was the call for NC(=O)O ?
Given back: 0.0

Asked: Check the results log: what was the call for N#CCc1ccc(Cl)cc1 ?
Given back: 0.0

Asked: Check the results log: what was the call for O=Cc1cccc(Oc2ccccc2)c1 ?
Given back: 0.0

Asked: Check the results log: what was the call for C[C@]12CCC(=O)C[C@@H]1CC[C@@H]1[C@@H]2CC[C@]2(C)[C@@H](O)CC[C@@H]12 ?
Given back: 0.0

Asked: Check the results log: what was the call for COP(=S)(OC)Oc1c(Cl)cc(C)cc1Cl ?
Given back: 0.0

Asked: Check the results log: what was the call for CCOC(=O)Nc1cccc(OC(=O)Nc2ccccc2)c1 ?
Given back: 0.0

Asked: Check the results log: what was the call for CC(C)(OO)c1ccccc1 ?
Given back: 0.0

Asked: Check the results log: what was the call for CN(C)N=O ?
Given back: 0.0

Asked: Check the results log: what was the call for CCCCCCCCSC(=O)Oc1cc(Cl)nnc1-c1ccccc1 ?
Given back: 0.0

Asked: Check the results log: what was the call for N#CN=C(N)N ?
Given back: 0.0

Asked: Check the results log: what was the call for COS(=O)(=O)c1ccc(C)cc1 ?
Given back: 0.0

Asked: Check the results log: what was the call for COP(=S)(OC)Oc1cc(Cl)c(Cl)cc1Cl ?
Given back: 0.0

Asked: Check the results log: what was the call for CC12CC1(C)C(=O)N(c1cc(Cl)cc(Cl)c1)C2=O (configuration not stated) ?
Given back: 0.0

Asked: Check the results log: what was the call for O=C(O)C(Cl)(Cl)Cl ?
Given back: 0.0

Asked: Check the results log: what was the call for O=c1[nH]c(=O)[nH]c(=O)[nH]1 ?
Given back: 0.0

Asked: Check the results log: what was the call for CC(C)(C)c1cc(O)ccc1O ?
Given back: 0.0

Asked: Check the results log: what was the call for Clc1ccc(C2(Cn3cncn3)CC(Br)CO2)c(Cl)c1 (configuration not stated) ?
Given back: 0.0

Asked: Check the results log: what was the call for ClCc1cccnc1 ?
Given back: 0.0

Asked: Check the results log: what was the call for O=P(O)(O)CN(CP(=O)(O)O)CP(=O)(O)O ?
Given back: 0.0

Asked: Check the results log: what was the call for ClC1(Cl)C2(Cl)C3(Cl)C4(Cl)C(Cl)(Cl)C5(Cl)C3(Cl)C1(Cl)C5(Cl)C24Cl (configuration not stated) ?
Given back: 0.0

Asked: Check the results log: what was the call for COC[C@H](C)N(C(=O)CCl)c1c(C)csc1C ?
Given back: 0.0

Asked: Check the results log: what was the call for COP(=O)(OC)OC ?
Given back: 0.0

Asked: Check the results log: what was the call for O=C(Cc1ccccc1)c1ccccc1 ?
Given back: 0.0

Asked: Check the results log: what was the call for CCc1ccccc1C ?
Given back: 0.0

Asked: Check the results log: what was the call for CCC(=O)c1ccccc1 ?
Given back: 0.0

Asked: Check the results log: what was the call for O=C(NCO)NCO ?
Given back: 0.0

Asked: Check the results log: what was the call for CCOP(=O)(CN(CCO)CCO)OCC ?
Given back: 0.0

Asked: Check the results log: what was the call for CCCCC(CC)CO[N+](=O)[O-] (configuration not stated) ?
Given back: 0.0

Asked: Check the results log: what was the call for O=C(Cl)c1ccc(Cl)cc1 ?
Given back: 0.0

Asked: Check the results log: what was the call for CC1(C)Cc2cccc(O)c2O1 ?
Given back: 0.0

Asked: Check the results log: what was the call for O=C(Nc1ccc2[nH]ccc2c1)c1cc2cc(F)ccc2n1Cc1cccc(F)c1 ?
Given back: 1.0

Asked: Check the results log: what was the call for Oc1ccc(-c2ccccc2)cc1 ?
Given back: 1.0

Asked: Check the results log: what was the call for O=C(O)C(F)(F)C(F)(F)C(F)(F)C(F)(F)C(F)(F)C(F)(F)C(F)(F)C(F)(F)C(F)(F)C(F)(F)F ?
Given back: 0.0

Asked: Check the results log: what was the call for Cc1ccccc1C(=O)Nc1cccc(OC(C)C)c1 ?
Given back: 0.0

Asked: Check the results log: what was the call for ClCCBr ?
Given back: 0.0

Asked: Check the results log: what was the call for Cc1cc(Cl)ccc1O[C@H](C)C(=O)O ?
Given back: 0.0

Asked: Check the results log: what was the call for Nc1ccc(Cl)cc1C(=O)c1ccccc1 ?
Given back: 0.0

Asked: Check the results log: what was the call for CN(CCCC(=O)c1cccnc1)N=O ?
Given back: 0.0

Asked: Check the results log: what was the call for COC(=O)c1sccc1S(=O)(=O)NC(=O)Nc1nc(C)nc(OC)n1 ?
Given back: 0.0

Asked: Check the results log: what was the call for COc1cc2c(cc1OC)[C@@]13CCN4CC5=CCO[C@H]6CC(=O)N2[C@H]1[C@H]6[C@H]5C[C@H]43 ?
Given back: 0.0

Asked: Check the results log: what was the call for CC(C)c1cccc(C(C)C)c1O ?
Given back: 0.0

Asked: Check the results log: what was the call for CNC ?
Given back: 0.0

Asked: Check the results log: what was the call for O=C1C2(Cl)C3(Cl)C4(Cl)C(Cl)(Cl)C5(Cl)C3(Cl)C1(Cl)C5(Cl)C24Cl (configuration not stated) ?
Given back: 0.0

Asked: Check the results log: what was the call for CCC1(c2ccc(N)cc2)CCC(=O)NC1=O (configuration not stated) ?
Given back: 0.0

Asked: Check the results log: what was the call for Oc1c(I)cc(I)cc1I ?
Given back: 0.0

Asked: Check the results log: what was the call for CC(C#N)CCC#N (configuration not stated) ?
Given back: 0.0

Asked: Check the results log: what was the call for CC(=O)[O][Hg][c]1ccccc1 ?
Given back: 0.0

Asked: Check the results log: what was the call for C[C@H]1CCCC(=O)CCC/C=C/c2cc(O)cc(O)c2C(=O)O1 ?
Given back: 0.0

Asked: Check the results log: what was the call for CCN(CC)C(=O)Cl ?
Given back: 0.0

Asked: Check the results log: what was the call for Nc1ccc(N=Nc2ccc(-c3ccc(N=Nc4c(S(=O)(=O)O)cc5cc(S(=O)(=O)O)c(N=Nc6ccccc6)c(O)c5c4N)cc3)cc2)c(N)c1 ?
Given back: 0.0

Asked: Check the results log: what was the call for CCCCCCCCC(=O)NCc1ccc(O)c(OC)c1 ?
Given back: 0.0

Asked: Check the results log: what was the call for CC(=O)c1cc(C(C)(C)C)cc2c1CCC2(C)C ?
Given back: 1.0

Asked: Check the results log: what was the call for CC(C)(c1ccccc1)c1ccc(O)c(C(C)(C)c2ccccc2)c1 ?
Given back: 0.0

Asked: Check the results log: what was the call for CCOP(=S)(OCC)Oc1ccc(S(C)=O)cc1 (configuration not stated) ?
Given back: 0.0

Asked: Check the results log: what was the call for Cc1ccccc1N ?
Given back: 0.0

Numbers sourced from PubChem BioAssay (EPA / NIEHS).
